Data provenance is paper PMC9516332.

# target_of_assay: panel of 255 wild-type kinases (Homo sapiens)
# test_method_notes: Kinase panel profiling at 1 µmol/L (MSA or IMAP), percentage inhibition
# Type: biochemical
# protocol_conditions: MSK2; 1 µmol/L single concentration; read-out: %-inhibition, MSK2
experimental_endpoint: inhibition at 1 µM (%)
Numbers only, in %.

INSERT INTO assay_data (smiles_entry, target_of_assay, experimental_endpoint, data_value) VALUES
  ('Cc1cc(Nc2ncnc3ccc(NC4=NC(C)(C)CO4)cc23)ccc1Oc1ccn2ncnc2c1', 'panel of 255 wild-type kinases (Homo sapiens)', 'inhibition at 1 µM', 1.24),
  ('FC(F)(F)c1ccc(CNc2ccc(Cc3c[nH]c4ncc(Cl)cc34)cn2)cn1', 'panel of 255 wild-type kinases (Homo sapiens)', 'inhibition at 1 µM', 4.45),
  ('CCn1c(=O)c(-c2cc(NC(=O)Nc3ccccc3)c(F)cc2Br)cc2cnc(NC)cc21', 'panel of 255 wild-type kinases (Homo sapiens)', 'inhibition at 1 µM', 3);

The record that follows has no inhibition at 1 µM shown yet.
Task: What measured inhibition at 1 µM goes with C[C@H](Nc1ncnc2nc[nH]c12)c1cc2cccc(Cl)c2c(=O)n1-c1ccccc1 ?
Output: -1.39

====

Hi there, I'd appreciate the recorded inhibition at 1 µM for every entry that follows.
# target_of_assay: panel of 255 wild-type kinases (Homo sapiens, UniProt P49841)
# Sequence (P49841 whole entry): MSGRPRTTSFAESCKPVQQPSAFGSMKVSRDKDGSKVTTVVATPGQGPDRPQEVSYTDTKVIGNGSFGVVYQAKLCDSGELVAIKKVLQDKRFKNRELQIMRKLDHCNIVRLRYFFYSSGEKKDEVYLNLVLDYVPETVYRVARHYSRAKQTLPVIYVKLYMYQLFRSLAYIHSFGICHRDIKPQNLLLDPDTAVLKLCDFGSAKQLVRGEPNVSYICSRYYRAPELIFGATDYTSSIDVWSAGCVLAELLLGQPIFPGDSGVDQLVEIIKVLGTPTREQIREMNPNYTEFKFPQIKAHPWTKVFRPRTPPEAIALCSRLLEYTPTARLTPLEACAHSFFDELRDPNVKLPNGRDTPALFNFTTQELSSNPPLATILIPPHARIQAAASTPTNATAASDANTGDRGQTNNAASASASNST
# test_method_notes: Kinase panel profiling at 1 µmol/L (MSA or IMAP), percentage inhibition
# Assay type: biochemical
# protocol_conditions: kinase GSK3β; 1 µmol/L single concentration
Numbers only, in %.

INSERT INTO measurements (smiles_entry, target_of_assay, experimental_endpoint, measurement_unit, data_value) VALUES
  ('CN1CCN(c2ccc(C(=O)Nc3n[nH]c4ccc(Cc5cc(F)cc(F)c5)cc34)c(NC3CCOCC3)c2)CC1', 'panel of 255 wild-type kinases (Homo sapiens, UniProt P49841)', 'inhibition at 1 µM', '%', -1.6);

Hi, could you look up inhibition at 1 µM for each item in my list?
1. Cc1cc(Nc2ncnc3ccc(NC4=NC(C)(C)CO4)cc23)ccc1Oc1ccn2ncnc2c1
2. Cn1cnc2c(F)c(Nc3ccc(Br)cc3F)c(C(=O)NOCCO)cc21
3. O=C(Nc1cnn2ccc(N3CCC[C@@H]3c3cc(F)ccc3F)nc12)N1CC[C@H](O)C1
4. CCN1CCN(c2ccc(Nc3cc(N(C)C(=O)Nc4c(Cl)c(OC)cc(OC)c4Cl)ncn3)cc2)CC1
5. COC(=O)N[C@@H](C)CNc1nccc(-c2cn(C(C)C)nc2-c2cc(Cl)cc(NS(C)(=O)=O)c2F)n1
6. Cn1cc(-c2cc3c(N4CCN(c5ncc([C@@](C)(N)c6ccc(F)cc6)cn5)CC4)ncnn3c2)cn1
7. COc1cc2ncnc(Nc3ccc(F)c(Cl)c3)c2cc1NC(=O)/C=C/CN1CCCCC1
8. C[C@H]1Oc2cc(cnc2N)-c2c(nn(C)c2C#N)CN(C)C(=O)c2ccc(F)cc21

Output:
1. 8
2. -1.84
3. -11
4. -9
5. 92
6. -5.32
7. 11
8. -4.7

====

# target_of_assay: UniProtKB Q16288
# Sequence (Q16288 32-839): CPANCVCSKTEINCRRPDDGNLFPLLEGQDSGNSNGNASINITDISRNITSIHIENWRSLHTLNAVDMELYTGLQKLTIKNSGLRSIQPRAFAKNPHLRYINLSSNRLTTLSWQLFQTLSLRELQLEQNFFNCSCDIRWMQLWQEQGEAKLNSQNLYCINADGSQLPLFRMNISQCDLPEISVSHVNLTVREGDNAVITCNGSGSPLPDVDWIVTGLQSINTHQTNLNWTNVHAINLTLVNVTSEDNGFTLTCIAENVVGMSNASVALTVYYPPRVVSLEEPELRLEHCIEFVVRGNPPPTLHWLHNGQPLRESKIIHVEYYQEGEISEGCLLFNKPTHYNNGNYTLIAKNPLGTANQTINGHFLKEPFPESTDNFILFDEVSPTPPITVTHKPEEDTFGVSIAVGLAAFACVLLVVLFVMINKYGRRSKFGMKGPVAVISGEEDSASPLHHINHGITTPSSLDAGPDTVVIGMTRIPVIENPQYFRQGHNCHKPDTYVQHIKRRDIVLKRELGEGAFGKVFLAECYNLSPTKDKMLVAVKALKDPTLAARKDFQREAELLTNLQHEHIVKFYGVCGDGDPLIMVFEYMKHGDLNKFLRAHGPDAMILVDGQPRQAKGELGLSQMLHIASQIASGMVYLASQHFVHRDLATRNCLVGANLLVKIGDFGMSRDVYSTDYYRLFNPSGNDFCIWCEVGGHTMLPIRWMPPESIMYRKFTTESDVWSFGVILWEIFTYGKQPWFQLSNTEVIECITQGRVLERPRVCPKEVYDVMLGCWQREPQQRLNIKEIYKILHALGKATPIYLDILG
# test_method_notes: Kinase panel profiling at 1 µmol/L (MSA or IMAP), percentage inhibition
# Format: biochemical
# protocol_conditions: kinase TRKC; 1 µmol/L single concentration; read-out: %-inhibition at 1 µmol/L, TRKC
Field: inhibition at 1 µM. Provide a value for each of the compounds that follow.
Answers are plain numbers, in %.

Answered examples (5):
INSERT INTO assay_data (smiles_entry, experimental_endpoint, measurement_unit, data_value) VALUES
  ('CCn1c(=O)c(-c2cc(NC(=O)Nc3ccccc3)c(F)cc2Br)cc2cnc(NC)cc21', 'inhibition at 1 µM', '%', 54),
  ('Cn1cc(-c2cc3c(N4CCN(c5ncc([C@@](C)(N)c6ccc(F)cc6)cn5)CC4)ncnn3c2)cn1', 'inhibition at 1 µM', '%', 57),
  ('CCc1nc(C(N)=O)c(Nc2ccc(N3CCC(N4CCN(C)CC4)CC3)c(OC)c2)nc1NC1CCOCC1', 'inhibition at 1 µM', '%', 100),
  ('O=C(Nc1cnn2ccc(N3CCC[C@@H]3c3cc(F)ccc3F)nc12)N1CC[C@H](O)C1', 'inhibition at 1 µM', '%', 101),
  ('CCN1CCN(c2ccc(Nc3cc(N(C)C(=O)Nc4c(Cl)c(OC)cc(OC)c4Cl)ncn3)cc2)CC1', 'inhibition at 1 µM', '%', 6);

Now for the compound whose inhibition at 1 µM we want.
Task: Return reported inhibition at 1 µM; argument: COC(=O)N[C@@H](C)CNc1nccc(-c2cn(C(C)C)nc2-c2cc(Cl)cc(NS(C)(=O)=O)c2F)n1
Output: -0.54
